All values here come from patent US20180362632A1.

# experimental.target: recombinant human GM-CSF protein (human, UniProt P04141 18-144)
# Sequence (P04141 18-144): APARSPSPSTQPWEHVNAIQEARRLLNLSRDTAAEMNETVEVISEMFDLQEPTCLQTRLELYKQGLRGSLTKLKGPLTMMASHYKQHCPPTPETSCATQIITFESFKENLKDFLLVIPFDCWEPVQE
# assay.notes: ELISA
Cut-off 0.09 nM on EC50: below means 1, at or above means -1.

Hu23F4-21 (antibody, V domains shown) VH: EVQLVQSGAEVKKPGASVKVSCKASGYTFTSHYLHWVRQAPGQGLEWMGWIFPGDDKTKYNEKFKGRVTMTRDTSISTAYMELSRLRSDDTAVYYCARGTKYLNWNFDVWGQGTTVTVSS VL: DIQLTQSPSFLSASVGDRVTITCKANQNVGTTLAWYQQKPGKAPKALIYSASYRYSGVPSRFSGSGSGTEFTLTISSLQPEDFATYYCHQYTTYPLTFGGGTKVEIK ... -1
Hu23F4-4 (antibody, V domains shown) VH: EVQLVQSGAEVKKPGATVKISCKVSGYTFTSHYLHWVQQAPGKGLEWMGWIFPGDDKTKYNEKFKGRVTITADTSTDTAYMELSSLRSEDTAVYYCARGTKYLNWNFDVWGQGTTVTVSS VL: DIQLTQSPSFLSASVGDRVTITCKANQNVGTTLAWYQQKPGKSPKALIYSASYRYSGVPDRFSGSGSGTDFTLTISSLQPEDFATYFCHQYTTYPLTFGGGTKVEIK ... 1

[ask] Answer whether the binder Hu23F4-16 (antibody, V domains shown) VH: EVQLVQSGAEVKKPGATVKISCKVSGYTFTSHYLHWVQQAPGKGLEWIGWIFPGDDKTKYNEKFKGRATLTSDTSTDTAYMELSSLRSEDTAVYYCARGTKYLNWNFDVWGQGTTVTVSS VL: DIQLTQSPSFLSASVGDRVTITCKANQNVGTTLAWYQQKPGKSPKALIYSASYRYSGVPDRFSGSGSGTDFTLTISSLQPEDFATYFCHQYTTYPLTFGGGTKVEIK has EC50 strictly less than 0.09 nM
[reply] 1

[ask] Does this binder meet the criterion EC50 < 0.09 nM? Hu23F4-12 (antibody, V domains shown) VH: EVQLVQSGAEVKKPGATVKISCKVSGYTFTSHYLHWVQQAPGKGLEWMGWIFPGDDKTKYNEKFKGRATLTSDTSTDTAYMELSSLRSEDTAVYYCARGTKYLNWNFDVWGQGTTVTVSS VL: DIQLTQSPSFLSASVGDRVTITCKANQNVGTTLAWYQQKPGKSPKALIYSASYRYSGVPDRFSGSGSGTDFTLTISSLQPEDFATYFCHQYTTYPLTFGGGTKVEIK
[reply] -1
